Test: Oral bioavailability in cynomolgus monkey at 1 mg/kg
Assay type: ADME, organism-based, Macaca fascicularis
Settings: in vivo
Returns one of satisfied or not satisfied; satisfied when bioavailability is >= 10%.

1. CC(C)CCN1C(=O)C(C2=NS(=O)(=O)c3cc(NS(C)(=O)=O)ccc3N2)=C(O)C2CCCCC21 (racemic): not satisfied
2. CS(=O)(=O)Nc1ccc2c(c1)S(=O)(=O)N=C(C1=C(O)[C@@H]3CCCC[C@@H]3N(Cc3ccc(F)cc3)C1=O)N2: not satisfied
3. CS(=O)(=O)Nc1ccc2c(c1)S(=O)(=O)N=C(C1=C(O)C3CCCCCC3N(Cc3ccc(F)cc3)C1=O)N2 (racemic): satisfied
4. CS(=O)(=O)Nc1ccc2c(c1)S(=O)(=O)N=C(C1=C(O)[C@H]3CCCC[C@H]3N(Cc3ccc(F)cc3)C1=O)N2: satisfied
5. CC(C)(C)CCN1C(=O)C(C2=NS(=O)(=O)c3cc(NS(C)(=O)=O)ccc3N2)=C(O)C2CCCCC21 (racemic): not satisfied
6. CS(=O)(=O)Nc1ccc2c(c1)S(=O)(=O)N=C(C1=C(O)[C@H]3CCC[C@H]3N(Cc3ccc(F)cc3)C1=O)N2: satisfied
7. CS(=O)(=O)Nc1ccc2c(c1)S(=O)(=O)NC(C1=C(O)[C@@H]3CCC[C@@H]3N(Cc3ccc(F)cc3)C1=O)=N2: satisfied
8. CC(C)(C)CCN1C(=O)C(C2=NS(=O)(=O)c3cc(NS(C)(=O)=O)ccc3N2)=C(O)C2CCCC21 (racemic): satisfied
9. CS(=O)(=O)Nc1ccc2c(c1)S(=O)(=O)N=C(C1=C(O)[C@H]3CCC[C@H]3N(Cc3ccc(F)c(F)c3)C1=O)N2: satisfied
